experiment: NCI Yeast Anticancer Drug Screen. Data for the cln2 rad14 strain (AID 165);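 further: 0% = growth equal to vehicle treated cultures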; settings: S. cerevisiae cln2 rad14 strain, at 50.0 µM (retest, dose inferred, filed as 5.0)
This is part of a sample that, as a whole, favours compounds with a hit. Of some 79,000 tested, about 15% had one in any assay. Activity calls are given as the source filed them. No stated cut-off is given here; in the data, active means growth inhibition above about 70%; inactive means the rest.
I would appreciate it if you answered using one of these outcomes: active, inactive

Please review the entries below; each comes with its answer.
{"molecule": "CCNc1cc(SC)nc(N)n1", "group_label": "inactive"}
{"molecule": "CC1CCC2(CC1)NC1=C(CC(C)CC1)C1=C2CC(C)CC1 (stereo unspecified)", "group_label": "inactive"}
{"molecule": "O=S(=O)(Nc1ccc2c3c(cccc13)C=C2)c1ccccc1", "group_label": "active"}

# input Just curious, what result did CCOc1ccc(N=Nc2ccccc2)cc1 get here?
# output inactive

# input Would you mind doing COc1ccc2c(c1)[n+]([O-])c(-c1ccc(Cl)c(Cl)c1)c(N)[n+]2[O-] as well?
# output active

# input Would you mind doing COC(=O)C1=CCC[C@H]2C1(C)CCC(C)C21CC(c2ccoc2)OC1=O (stereo partly specified) as well?
# output inactive

* * *

experiment: NCI Yeast Anticancer Drug Screen. Data for the bub3 strain (AID 167); conditions: S. cerevisiae bub3 mutant strain, at 50.0 µM (retest, dose inferred, filed as 5.0), active compounds read high
About 79,000 compounds went through this panel and 15% of them were active in at least one assay; those are over-represented in the sample as a whole.
Overview of recorded growth inhibition for various molecules
Express the result in % but write the number alone.

Here's what some known entries look like.
{"molecule": "O=C(/C=C/c1ccc(Cl)c(Cl)c1)CCN1CCN(CCC(=O)/C=C/c2ccc(Cl)c(Cl)c2)CC1", "growth inhibition / %": 98}
{"molecule": "O=C(O)NCc1ccccc1 (tested in a mixture with another compound)", "growth inhibition / %": 98}
{"molecule": "CC(=O)Nc1cccc2c1ccc1ccc3ccccc3c12", "growth inhibition / %": -1}

# input for lookup
# input Need growth inhibition of CS(=O)(=O)OCCN(CCOS(C)(=O)=O)c1ccc(C=Nc2ccc3ccccc3c2)c(Cl)c1 , thanks.
# output -9

* * *

assay: NCI Yeast Anticancer Drug Screen. Data for the rad50 strain (AID 155);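 further: 0% = growth of vehicle-only cultures of the same strain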; details: S. cerevisiae rad50 strain growth inhibition; at 5.0 µM (retest, dose inferred, filed as 0.5); active compounds read high
The panel holds about 79,000 compounds, 15% with a hit somewhere; the sample as a whole holds those more often.
Overview of recorded growth inhibition for various molecules
Express the result in % but write the number alone.

Here's what some known entries look like.
{"molecule": "Cn1c(=NCCc2ccccc2)oc2ccc(Cl)cc21", "growth inhibition, %": -6}
{"molecule": "CCCC(c1ccc(O)cc1)c1ccc(O)cc1", "growth inhibition, %": 1}

# input Need growth inhibition of CC(=O)N1CC(C)CC2OC3(CCC4C5CCC6CC(O)CCC6(C)C5C(=O)C4C3C)C(C)C21 (stereo not given) , thanks.
# output 10

# input Would you mind doing CCOC(=O)C1=C(Nc2ccc(Br)cc2)OC/C1=N\NC(=O)c1ccccc1O as well?
# output 11

# input Would you mind doing CCc1cccc(C)c1N1C(=O)C(=O)C(c2nc3ccccc3o2)/C(=N\NS(=O)(=O)c2ccc(C)cc2)C1=O (stereo not given) as well?
# output 7

* * *

Overview of recorded growth inhibition for various molecules
assay: NCI Yeast Anticancer Drug Screen. Data for the mlh1 rad18 strain (AID 175); details: S. cerevisiae mlh1 rad18 strain growth inhibition; at 5.0 µM (retest, dose inferred, filed as 0.5); active compounds read high
This is part of a sample that, as a whole, favours compounds with a hit. Of some 79,000 tested, about 15% had one in any assay.
Express the result in % but write the number alone.

Here's what some known entries look like.
{"molecule": "CCCCCCCCCCCCc1ccc(S(=O)(=O)O)cc1.[Zn+2]", "growth inhibition (%)": -2}
{"molecule": "Cc1ccc(-n2cc(-c3ccc(Cl)cc3)c3c(NN)ncnc32)cc1", "growth inhibition (%)": -14}
{"molecule": "CCN(CC)CCCNc1cc(C)nc2c1ccc1c2ccc2c(NCCCN(CC)CC)cc(C)nc21", "growth inhibition (%)": -4}
{"molecule": "O=C(Nc1cccc2ccccc12)OCC1CCc2ccccc2C1 (stereo unspecified)", "growth inhibition (%)": -5}
{"molecule": "C[C@H](CCC(=O)O)[C@H]1CC[C@H]2[C@@H]3CC[C@@H]4C[C@H](O)CC[C@]4(C)[C@H]3C[C@H](O)[C@]12C", "growth inhibition (%)": -11}
{"molecule": "NC1C(=O)C2CCCCC2C(=O)C1C(=O)c1ccccc1 (stereo unspecified)", "growth inhibition (%)": 3}

# input Need growth inhibition of CCCCC(CC)CN1C(=O)C2C3C=CC(C3)C2C1=O (stereo unspecified) , thanks.
# output -6

# input Would you mind doing CCCCCC(C)(C)N=C=S as well?
# output -5

# input Would you mind doing COc1ccc(C(=O)Nc2ccccc2[N+](=O)[O-])cc1 as well?
# output -13

# input Would you mind doing C(=C\c1cnnc2ccccc12)/c1ccco1 as well?
# output 2

# input Would you mind doing Cc1c(C(C)(C)C)cc(C(C)(C)C)c(O)c1CN(C)Cc1c(C)c(C(C)(C)C)cc(C(C)(C)C)c1O as well?
# output 4

* * *

Overview of recorded growth inhibition for various molecules
Assay: NCI Yeast Anticancer Drug Screen. Data for the sgs1 mgt1 strain (AID 161);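 further: 0% = growth of cultures given vehicle only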
Conditions: S. cerevisiae sgs1 mgt1 strain, at 5.0 µM (retest, dose inferred, filed as 0.5), active compounds read high
Method: Growth inhibition of yeast strains with defined genetic alterations is measured as a screen for potential anti-cancer activity. Selected strains with alterations in DNA damage repair or cell cycle control were exposed to compounds and growth inhibition was measured relative to vehicle treated controls. The strain used in this assay is sgs1 mgt1
About 79,000 compounds went through this panel and 15% of them were active in at least one assay; those are over-represented in the sample as a whole.
Express the result in % but write the number alone.

Here's what some known entries look like.
{"molecule": "CN(C)C(=O)Nc1ccc(Cc2ccc(NC(=O)N(C)C)cc2)cc1", "growth inhibition [%]": -13}
{"molecule": "CC1(C)CC(O)C(O)C1 (stereo unspecified)", "growth inhibition [%]": 0}
{"molecule": "CCN(CC)CCOc1c(I)cc(I)cc1I", "growth inhibition [%]": 12}
{"molecule": "CCCN(CCC)CCNc1ccc(C)c2sc3ccccc3c(=O)c12", "growth inhibition [%]": 42}
{"molecule": "O=[N+]([O-])c1cccc(S(=O)(=O)Cl)c1", "growth inhibition [%]": 1}
{"molecule": "O=C(OC1CC2CC1C1CC=CC21)c1ccccc1 (stereo unspecified)", "growth inhibition [%]": -8}
{"molecule": "COC12C=CC(CC1)c1c2c(O)c2ncccc2c1O (stereo unspecified)", "growth inhibition [%]": -5}
{"molecule": "COC(=O)c1ccccc1NC(=O)C(=O)Cc1nc2c3c(ccc2[nH]c1=O)C(=O)c1ccccc1C3=O", "growth inhibition [%]": 6}

# input Need growth inhibition of Cc1ccc(/C=N/NS(=O)(=O)c2ccccc2)c(C)c1 , thanks.
# output 1

# input Would you mind doing Clc1ccc(C2=C(c3ccccc3)C(c3ccc(Cl)cc3)N3C(=N[C@H]4CCCC[C@@H]43)N2)cc1 (stereo partly specified) as well?
# output -14

# input Would you mind doing Cc1ccc(C2=C(C#N)C(c3ccccc3)C(C#N)=C(N)O2)cc1 (stereo unspecified) as well?
# output 71

* * *

experiment: NCI Yeast Anticancer Drug Screen. Data for the bub3 strain (AID 167); conditions: S. cerevisiae bub3 mutant strain, at 5.0 µM (retest, dose inferred, filed as 0.5)
The panel holds about 79,000 compounds, 15% with a hit somewhere; the sample as a whole holds those more often. The source made the active and inactive calls. Rule as the data show it: active = growth inhibition above about 70%; inactive = the rest.
I would appreciate it if you answered using one of these outcomes: 1 (active), -1 (inactive)

Please review the entries below; each comes with its answer.
{"compound": "CN(CN(C)N=Nc1ccc(Cl)cc1)CN(C)N=Nc1ccc(Cl)cc1", "group_label": -1}
{"compound": "OCC(O)C(O)C(O)C(/C=N/Nc1ccccc1)=N\\Nc1ccccc1 (stereo not drawn)", "group_label": -1}
{"compound": "CC(C)C1=CC2=CCC3C(C)(C(=O)O)CCCC3(C)C2CC1 (stereo not drawn) (tested in a mixture with another compound)", "group_label": -1}
{"compound": "C=CCOC(=O)CCC(=O)N(CC)CC", "group_label": -1}
{"compound": "COc1ccc(C(=O)Cc2ccc(Cl)cc2)cc1OC", "group_label": -1}

Let's switch to this compound now.
# input Just curious, what result did COc1cc(OC)c(C(c2cc3c(cc2O)OCO3)N2CCOCC2)c(OC)c1 (stereo not drawn) get here?
# output -1

* * *

Assay: NCI Yeast Anticancer Drug Screen. Data for the mec2-1 strain (AID 157)
Details: S. cerevisiae mec2-1 strain, at 50.0 µM, active compounds read high
Description: Growth inhibition of yeast strains with defined genetic alterations is measured as a screen for potential anti-cancer activity. Selected strains with alterations in DNA damage repair or cell cycle control were exposed to compounds and growth inhibition was measured relative to vehicle treated controls. The strain used in this assay is mec2-1
This is part of a sample that, as a whole, favours compounds with a hit. Of some 79,000 tested, about 15% had one in any assay.
Parameter threshold = 20%. Response is 1 when growth inhibition meets or exceeds it, else 0.

Please review the entries below; each comes with its answer.
{"smiles_text": "COc1cc(Nc2ccc(Oc3ccc(O)cc3)cc2)c2ncccc2c1", "group_label": 1}
{"smiles_text": "CN(C)C(N)=NC#N", "group_label": 1}
{"smiles_text": "COc1ccc(N(C)Sc2ccccc2)cc1", "group_label": 1}
{"smiles_text": "COC(=O)Oc1nn(C(=O)OC)c(=O)c2ccccc12", "group_label": 1}
{"smiles_text": "Cc1ccc(C(c2ccc(N(C)C)cc2)c2ccc(N(C)C)cc2)cc1", "group_label": 1}
{"smiles_text": "Cc1ccc(Cc2nc(=S)[nH][nH]2)cc1", "group_label": 0}
{"smiles_text": "O=C(CCl)OCC(=O)c1ccc(-c2ccccc2)cc1", "group_label": 0}
{"smiles_text": "CCc1cccc(CC)c1Nc1nc2c(s1)C(=O)c1ccccc1C2=O", "group_label": 1}

# input Is reported growth inhibition greater than or equal to 20% here: CC[O-].CC[O-].[O-]c1ccccc1C=Nc1ccccc1.[O-]c1ccccc1C=Nc1ccccc1.[Ti+4]
# output 0

# input Would you mind doing CCCNC(=O)c1ccccc1 as well?
# output 0

# input Would you mind doing CN(C)CCN(C)N=Nc1c(-c2ccc(Cl)cc2)n[nH]c1C(F)(F)F as well?
# output 1

# input Would you mind doing O=C(OCc1ccccc1CN1CCOCC1)c1cccc(Br)c1 as well?
# output 0

Reference source: PubChem BioAssay (NCI)
